Below, each entry is listed alongside its reported koff.
Target: T1, human latent myostatin (human, UniProt O14793 25-266; O14793 267-375)
T1 construct: non-covalent complex of two propeptides and the mature homodimer; also called human myostatin latent form
T1 sequence 1: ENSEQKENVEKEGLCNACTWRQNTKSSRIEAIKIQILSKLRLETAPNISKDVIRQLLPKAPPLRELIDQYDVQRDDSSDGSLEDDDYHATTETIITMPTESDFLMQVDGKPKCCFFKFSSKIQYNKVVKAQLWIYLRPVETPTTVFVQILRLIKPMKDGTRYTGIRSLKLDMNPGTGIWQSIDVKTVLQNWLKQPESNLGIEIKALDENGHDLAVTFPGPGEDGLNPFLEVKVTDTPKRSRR
T1 sequence 2: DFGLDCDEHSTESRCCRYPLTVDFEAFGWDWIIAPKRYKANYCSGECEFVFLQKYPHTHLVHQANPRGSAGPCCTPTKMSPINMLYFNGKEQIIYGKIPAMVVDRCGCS
Experiment: SPR, dissociation phase at pH5.8
Response body: numeric value in s⁻¹, unit text excluded.

What value of koff has been recorded for this entry: Ab003 (M103205H009/M103202L000) (antibody, V domains shown, variant of MS1032LO00-SG1) VH: QVTLKESGPVLVKPTETLTLTCTVSGIDLSSYDISWVRQAPGKGLEWVGIISHAGSTYYASWAKGRLTISKDTSKNQVVLTMTNMDPVDTATYYCARGVPAYSTGGDLWGQGTLVTVSS VL: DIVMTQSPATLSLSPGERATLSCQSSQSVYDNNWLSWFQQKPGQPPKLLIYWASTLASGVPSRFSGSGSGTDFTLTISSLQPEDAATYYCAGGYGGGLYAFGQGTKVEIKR
0.00088

What measured koff goes with Ab006 (M103205H000/M103202L008) (antibody, V domains shown, variant of MS1032LO00-SG1) VH: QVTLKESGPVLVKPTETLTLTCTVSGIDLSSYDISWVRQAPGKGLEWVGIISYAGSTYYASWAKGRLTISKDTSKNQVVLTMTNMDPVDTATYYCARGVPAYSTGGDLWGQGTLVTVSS VL: DIVMTQSPATLSLSPGERATLSCQSSQSVYHNNWLSWFQQKPGQPPKLLIYWASTLASGVPSRFSGSGSGTDFTLTISSLQPEDAATYYCAGGYGGGLYAFGQGTKVEIKR ?
8.58e-05

# context switch: different binder, same koff
Sample Ab004 (M103205H026/M103202L000) (antibody, V domains shown, variant of MS1032LO00-SG1) VH: QVTLKESGPVLVKPTETLTLTCTVSGIDLSSYDISWVRQAPGKGLEWVGIISYAGSTYYASWAKGRLTISKDTSKNQVVLTMTNMDPVDTATYYCARGVPAHSTGGDLWGQGTLVTVSS VL: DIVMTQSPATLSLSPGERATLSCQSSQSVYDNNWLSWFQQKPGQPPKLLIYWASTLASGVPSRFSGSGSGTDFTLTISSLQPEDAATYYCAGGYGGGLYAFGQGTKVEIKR — what was its koff?
0.000186
